measurementTarget: DRB1*1101 (Homo sapiens, UniProt P01903+P01911, A100R/A169T/A87E/I96F/K41T/L162R/M171V/P40S/Q125H/Q178H/Q39Y/Q99D/R42S/S66Y/T262R/V115G/W38E)
Sequence (P01903 26-254 limits assumed, other chains not shown): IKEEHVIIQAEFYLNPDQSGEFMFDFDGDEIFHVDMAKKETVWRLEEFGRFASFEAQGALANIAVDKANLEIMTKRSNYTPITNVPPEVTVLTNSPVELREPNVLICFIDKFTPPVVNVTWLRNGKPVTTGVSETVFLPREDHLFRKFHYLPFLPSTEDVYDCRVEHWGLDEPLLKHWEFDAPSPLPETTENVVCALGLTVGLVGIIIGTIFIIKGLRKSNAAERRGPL
assayExplanation: biochemical
assayContext: Binding affinity DRB1 *1101
No end group written: not given here.
experimentalReadout: log10(IC50) (log10 of the value in µM)
Short version: log10 scale, IC50, µM.

// log10(IC50) lookup, sequence = AQEVHNDAQVLHVLK [Peptide 90.0047] , result: 1.03

// log10(IC50) lookup, sequence = AKLMSNLLSIPETCM [Peptide 89.0066] , result: 1.16

// log10(IC50) lookup, sequence = GHQVVPPMAVSKAKA [Peptide 90.0011] , result: 0.31

// log10(IC50) lookup, sequence = ELQMALKGLAQSKYN [Peptide 90.0005] , result: -1.19

// log10(IC50) lookup, sequence = FQVIELQMALETLNA [Peptide 90.0025] , result: 0.60
